assay remarks: Plasma pharmacokinetics of tosedostat, CHR-79888 and paclitaxel (LC-MS/MS, noncompartmental)
assay setup: human, plasma, oral, 90 mg, Cmax, cohort 2: CHR-2797 90 mg, paclitaxel 175 mg m^−2; day 21, tosedostat without paclitaxel; plasma; mean (±s.e.m.)
assay readout: Cmax

INSERT INTO measurements (compound, experimental_value) VALUES
  ('CC(C)C[C@@H](C(=O)N[C@H](C(=O)OC1CCCC1)c1ccccc1)[C@H](O)C(=O)NO [tosedostat]', '0.969 µg/mL');

---

assay remarks: Plasma pharmacokinetics of tosedostat, CHR-79888 and paclitaxel (LC-MS/MS, noncompartmental)
assay setup: human, plasma, oral, Tmax, cohort 4: CHR-2797 180 mg, paclitaxel 175 mg m^−2; day 22, tosedostat in combination with paclitaxel; plasma; mean (±s.e.m.)
assay readout: Tmax

INSERT INTO assay_data (given_smiles, experimental_value) VALUES
  ('CC(C)C[C@@H](C(=O)N[C@H](C(=O)OC1CCCC1)c1ccccc1)[C@H](O)C(=O)NO', '4 h');
